The reported numbers originate from ChEMBL document CHEMBL1148346.

- ASSAY PROCEDURE: AUC0-24 after repeated oral dose of compound at 1 mg/kg in rats
- Assay type: ADME, organism-based
- Parameters: time < 24 hr, dose 1 mg/kg, route oral
- STATED CONDITIONS: rat, plasma
READOUT: AUC at 24 h (ng·h/mL)
Numeric only. Scale: ng·h/mL

Exercise: // Input: O=C(O)C(=O)c1cn(Cc2ccccc2)c2ccc(-c3ccc(OC(F)(F)F)cc3)cc12 . Output its AUC at 24 h only.
Solution: 960

====

- ASSAY PROCEDURE: Apparent half-life after single intravenous bolus of 1 mg/kg in rats
- Assay type: ADME, organism-based
- Set-up: dose 1 mg/kg, route intravenous
- STATED CONDITIONS: rat, in vivo
READOUT: half-life (h)
Numeric only. Scale: h

Exercise: // Input: O=C(O)C(=O)c1cn(Cc2ccccc2)c2ccc(-c3ccc(OC(F)(F)F)cc3)cc12 . Output its half-life only.
Solution: 2.95
